Values from ChEMBL document CHEMBL5036325

target: Programmed cell death protein 1/Programmed cell death 1 ligand 1 (Homo sapiens, UniProt Q9NZQ7); experiment: Inhibition of PD-1/PD-L1 interaction (unknown origin) preincubated with PD-L1 for 15 mins followed by PD-1 addition measured after 90 mins by TR-FRET assay
Sequence (Q15116 whole entry): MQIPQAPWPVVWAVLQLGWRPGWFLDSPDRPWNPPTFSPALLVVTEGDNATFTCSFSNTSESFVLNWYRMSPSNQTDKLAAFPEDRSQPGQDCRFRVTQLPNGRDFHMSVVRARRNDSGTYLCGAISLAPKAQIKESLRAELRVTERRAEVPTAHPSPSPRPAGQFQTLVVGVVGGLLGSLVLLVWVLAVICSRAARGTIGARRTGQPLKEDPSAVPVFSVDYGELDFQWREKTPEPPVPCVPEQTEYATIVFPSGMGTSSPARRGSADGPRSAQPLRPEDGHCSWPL
Sequence (Q9NZQ7 whole entry): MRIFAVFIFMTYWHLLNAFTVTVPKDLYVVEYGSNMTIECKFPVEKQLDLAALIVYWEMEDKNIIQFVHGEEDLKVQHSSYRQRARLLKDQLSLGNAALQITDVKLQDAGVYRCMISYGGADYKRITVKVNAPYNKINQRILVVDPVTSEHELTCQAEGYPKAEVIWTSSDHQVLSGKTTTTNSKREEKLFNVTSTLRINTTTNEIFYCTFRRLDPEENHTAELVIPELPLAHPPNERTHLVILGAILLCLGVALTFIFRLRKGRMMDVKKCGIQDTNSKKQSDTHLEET
measurement.kind: pIC50
Lab note — pIC50 values are minus log10 of concentrations in M.

Ask: Entry under review: "COc1nc(-c2cccc(-c3ccccc3)c2C)ccc1CNCCCO" . Reported pIC50?
Result: 8.13

Ask: For the compound shown here, "COc1nc(-c2cccc(-c3ccc4c(c3)OCO4)c2C)ccc1CNCCO" , give the reported pIC50.
Result: 7.88

Ask: Returns the measured pIC50 for the input compound. Input: "COc1nc(-c2cccc(-c3ccccc3)c2C)ccc1CN(C)CCO"
Result: 8.08

Ask: pIC50 lookup needed for "COc1nc(-c2cccc(-c3ccccc3)c2C)ccc1CN[C@H](C)CO" , thanks.
Result: 8.30

Ask: Quick one: pIC50 for "COc1nc(-c2cccc(-c3ccc4c(c3)OCCO4)c2C)ccc1CNCCO" ?
Result: 8.10

Ask: Could you tell me which pIC50 is on file for "COc1nc(-c2cccc(-c3ccccc3)c2C)ccc1C(=O)NCCO" ?
Result: 6.49

Ask: I'd like to know its pIC50. The compound in question is "COc1nc(-c2cccc(-c3ccc4c(c3)OCCO4)c2C)ccc1CN[C@@H](CO)C(=O)O"
Result: 7.98

Ask: Fill in: pIC50 of "COc1nc(-c2cccc(-c3ccccc3)c2C)ccc1CNCCN" is ___
Result: 7.68
